Data origin: the supplement of paper PMC6757056

B1: library; a variant is named by its letters at N, in order (parent)
chain: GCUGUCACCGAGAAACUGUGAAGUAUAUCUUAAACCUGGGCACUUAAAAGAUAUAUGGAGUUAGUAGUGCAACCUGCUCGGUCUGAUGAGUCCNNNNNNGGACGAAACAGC

Variants of: B1
METHOD: normalized RNA/DNA level without ligand (relative to sTRSVctl = 100) (log10 (% of sTRSVctl)); HEK293T; ligand: cyclic di-GMP (c-di-GMP-II aptamer); higher = less ribozyme self-cleavage, higher mRNA level
TEST_CONTEXT: reporter: mCherry (pCS4076), ligand present: no
TEST_READOUT: normalized RNA/DNA level without ligand (log10)

MUTATION_LABEL | MEASURED_RESULT
CACUGG | 1.7
ACGAUA | 1.45
GCUGCC | 1.67
CCGCGA | 1.59
CCCAAG | 1.59
CCCUAG | 1.65
CAAGAA | 1.23
UGAAGC | 1.68
AGGACA | 1.48
UUUGUC | 1.79
CAACAC | 1.58
GGUUAU | 1.64
UGCUCU | 1.77
GGAUCC | 1.86
UAAGCA | 1.75
CAUGGC | 1.72
CGGGUA | 1.67
AUGUUC | 1.68
CUUCUG | 1.78
CUUAAA | 1.37
CAUCAC | 1.67
UACGUU | 1.68
GCAUAA | 1.41
CGUUGU | 1.76
GCUCUG | 1.63
AGCUAA | 1.49
GGCCUC | 1.74
GCUCAG | 1.79
AUGUCC | 1.74
UAGAGG | 1.67
AAGAUG | 1.49
AAGACU | 1.66
CUACGA | 1.62
UAGCAG | 1.82
UCCGGC | 1.79
AACACC | 1.56
CUGCAG | 1.73
CGUAUU | 1.33
GGCCGC | 1.71
UUUAAG | 1.72
AACCUU | 1.66
